Please provide measured TGI for the entries that follow.
# Tested on: CCRF-CEM leukemia
# Assay Protocol: NCI tumour cell line growth inhibition, 48 h

Data request, read-out TGI, for CC(NC(=O)CNP(=O)(c1ccccc1)c1ccccc1)C(=O)NC(Cc1ccccc1)C(=O)OCc1ccccc1 (centres undefined)
> 10 µM

Data request, read-out TGI, for "CCN(CC)c1ncnc2c1ncn2CCNC(CO)(CO)CO"
> 100 µM

Data request, read-out TGI, for "CC[N+](C)(CC)CCNC(=O)C(O)(c1ccccc1)c1ccccc1"
> 100 µM

Data request, read-out TGI, for "CCN(CC)CCn1c(N)c(-c2nc3ccccc3n2C)c2nc(C#N)c(C#N)nc21"
37.9 µM

Data request, read-out TGI, for "CCOC(=O)NC(=O)c1cn(-c2ccc(CCOC(=O)NCCCCCCNC(=O)OCCc3ccc(-n4c(=O)[nH]cc(C(=O)NC(=O)OCC)c4=O)cc3)cc2)c(=O)[nH]c1=O"
> 100 µM

Data request, read-out TGI, for "CN1CCN(Cc2ccc(NC(=O)c3nc4ccc5[nH]ncc5c4c4c3CCCC4)cc2C(F)(F)F)CC1"
2.99 µM

Data request, read-out TGI, for "CC1(C)CC(=O)C(C(=O)C(=O)NC2=C(Cl)C(=O)c3ccccc3C2=O)C(=O)C1"
> 100 µM

Data request, read-out TGI, for "CN(CCO)C1CCN(c2ccc(Nc3ncc4c5ccnc(F)c5n(C5CCCC5)c4n3)nc2)CC1"
3.59 µM

Data request, read-out TGI, for CCCCCCCCCCCCC/C=C/[C@H]1[C@@H](C(=O)OC)N1S(=O)c1ccc(C)cc1 (some centres undefined)
> 100 µM
